- System Name: HuR RRM1/2 (Homo sapiens)
- Construct: 20 nM of the 5′-FAM RNA probe and 500 nM of HuR RRM1/2
- Sequence (Q15717 18-186 limits assumed): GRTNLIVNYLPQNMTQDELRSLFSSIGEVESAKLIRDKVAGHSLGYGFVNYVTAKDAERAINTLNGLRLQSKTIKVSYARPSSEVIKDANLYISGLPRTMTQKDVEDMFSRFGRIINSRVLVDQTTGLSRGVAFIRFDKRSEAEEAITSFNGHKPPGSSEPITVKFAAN
- Procedure Summary: Fluorescence polarization (FP) displacement assay, 5′ FAM-labeled RNA probe from HuR
- Study Conditions: displacement of 5′-FAM RNA probe UAUUUAUUUA (20 nM) from 500 nM HuR RRM1/2; read-out: Binding affinity towards HuR in FP assay (Kd)
pKd: −log10 of the molar value.
Parameter Measured: pKd

CCOC(=O)c1cc2cc(NC(=O)C3CCN(c4cccc5c4C(=O)N(C4CCC(=O)NC4=O)C5=O)CC3)ccc2s1 (stereo not drawn) [PRO-HuR5]
8.19
CCOC(=O)c1cc2cc(-n3cc(CNc4cccc5c4C(=O)N(C4CCC(=O)NC4=O)C5=O)nn3)ccc2s1 (stereo not drawn) [PRO-HuR4]
7.97
CCOC(=O)c1cc2cc(NC(=O)CCC(=O)N3CCN(c4cccc5c4C(=O)N(C4CCC(=O)NC4=O)C5=O)CC3)ccc2s1 (stereo not drawn) [PRO-HuR6]
5.03
O=C1CCC(N2C(=O)c3cccc(NCc4cn(-c5ccc6sc(C(=O)O)cc6c5)nn4)c3C2=O)C(=O)N1 (stereo not drawn) [PRO-HuR3]
7.52
CCOC(=O)c1cc2cc(NC(=O)/C=C/c3ccc(C(F)(F)F)cc3)ccc2[nH]1 [MG-HuR3]
8.03
O=C1CCC(N2C(=O)c3cccc(NCc4cn(-c5ccc6[nH]c(C(=O)O)cc6c5)nn4)c3C2=O)C(=O)N1 (stereo not drawn) [PRO-HuR1]
8.02
CCOC(=O)c1cc2cc(NC(=O)/C=C/c3ccc(C(F)(F)F)cc3)ccc2s1 [MG-HuR4]
5.83
O=C1CCC(N2C(=O)c3cccc(NCCc4cn(CCCC(=O)Nc5ccc6[nH]c(C(=O)O)cc6c5)nn4)c3C2=O)C(=O)N1 (stereo not drawn) [PRO-HuR2]
8.00

I: CCOC(=O)c1cc2cc(NC(=O)/C=C/C(=O)c3ccc(OC)cc3)ccc2s1 [MG-HuR1]
II: CCOC(=O)c1cc2cc(-n3cc(-c4ccc(C(=O)NCCNc5cccc6c5C(=O)N(C5CCC(=O)NC5=O)C6=O)cc4)nn3)ccc2s1 (stereo not drawn) [PRO-HuR7]
III: CCOC(=O)c1cc2cc(NC(=O)C3CN(c4cccc5c4C(=O)N(C4CCC(=O)NC4=O)C5=O)C3)ccc2s1 (stereo not drawn) [PRO-HuR8]
Sort the 3 compounds by pKd; largest first, smallest last. Form field (ranking): labels in requested order. II, I, III
